Tested on: Streptococcus sp.
Assay: in vitro antibacterial evaluation, MIC by broth dilution
Assay type: cell-based
Settings: broth dilution, 18 hours at 35° C.
The following compounds are listed with their measured MIC Streptococcus pneumoniae (GC 1894) values.
Give the number; µg/mL is assumed, so skip it.

For orientation, consider the following solved cases.
>  <COMPOUND>
CC(c1ccccc1)C1NC(=O)CNC(=O)C(CO)NC(=O)C(C(O)C2CN(Cc3ccc(C(F)(F)F)cc3)C(=N)N2C2OC(CO)C(O)C(O)C2O)NC(=O)C(C(O)C2CNC(=N)N2)NC(=O)C(Cc2ccc(OC3OC(CO)C(OC4OC5COC6(OC5C(O)C4O)C4CC5CC(C4)CC6C5)C(O)C3O)cc2)NC1=O (centres unmarked)

>  <OBSERVABLE>
MIC Streptococcus pneumoniae (GC 1894)

>  <RESULT_VALUE>
0.5

$$$$
>  <COMPOUND>
CC(c1ccccc1)C1NC(=O)CNC(=O)C(CO)NC(=O)C(C(O)C2CN(Cc3ccccc3)C(=N)N2C2OC(CO)C(O)C(O)C2O)NC(=O)C(C(O)C2CNC(=N)N2)NC(=O)C(Cc2ccc(OC3OC(CO)C(OC4OC(CO)C(O)C(O)C4O)C(O)C3O)cc2)NC1=O (centres unmarked)

>  <OBSERVABLE>
MIC Streptococcus pneumoniae (GC 1894)

>  <RESULT_VALUE>
64

$$$$
>  <COMPOUND>
CN=C1N(C)CC(CC2NC(=O)C(Cc3ccc(OC4OC(CO)C(OC5OC(CO)C(O)C(O)C5O)C(O)C4O)cc3)NC(=O)C(C(C)c3ccccc3)NC(=O)CNC(=O)C(CO)NC(=O)C(CC3CN(C)C(=NC)N3C3OC(CO)C(O)C(O)C3O)NC2=O)N1C (centres unmarked)

>  <OBSERVABLE>
MIC Streptococcus pneumoniae (GC 1894)

>  <RESULT_VALUE>
128

$$$$
>  <COMPOUND>
COc1ccc2cc(COCC3OC(OC4C(CO)OC(Oc5ccc(CC6NC(=O)C(C(C)c7ccccc7)NC(=O)CNC(=O)C(CO)NC(=O)C(CC7CNC(=N)N7C7OC(CO)C(O)C(O)C7O)NC(=O)C(CC7CNC(=N)N7)NC6=O)cc5)C(O)C4O)C(O)C(O)C3O)ccc2c1 (centres unmarked)

>  <OBSERVABLE>
MIC Streptococcus pneumoniae (GC 1894)

>  <RESULT_VALUE>
1

$$$$
>  <COMPOUND>
CC(c1ccccc1)C1NC(=O)CNC(=O)C(CO)NC(=O)C(C(O)C2CN(Cc3ccc4ccccc4c3)C(=N)N2C2OC(CO)C(O)C(O)C2O)NC(=O)C(C(O)C2CNC(=N)N2)NC(=O)C(Cc2ccc(OC3OC(CO)C(OC4OC5COC6(OC5C(O)C4O)C4CC5CC(C4)CC6C5)C(O)C3O)cc2)NC1=O (centres unmarked)

>  <OBSERVABLE>
MIC Streptococcus pneumoniae (GC 1894)

>  <RESULT_VALUE>
0.25

$$$$

Write down measured MIC Streptococcus pneumoniae (GC 1894) (Streptococcus sp.) for this compound. CC(c1ccccc1)C1NC(=O)CNC(=O)C(CO)NC(=O)C(C(O)C2CN(Cc3ccccc3-c3ccccc3)C(=N)N2C2OC(CO)C(O)C(O)C2O)NC(=O)C(C(O)C2CNC(=N)N2)NC(=O)C(Cc2ccc(OC3OC(CO)C(OC4OC(CO)C(O)C(O)C4O)C(O)C3O)cc2)NC1=O (centres unmarked)
128

# assay system Streptococcus sp.: give MIC Streptococcus pneumoniae (GC 1894) of CCCCCCN=C1NCC(C(O)C2NC(=O)C(C(O)C3CNC(=N)N3)NC(=O)C(Cc3ccc(OC4OC(CO)C(OC5OC6COC7(OC6C(O)C5O)C5CC6CC(C5)CC7C6)C(O)C4O)cc3)NC(=O)C(C(C)c3ccccc3)NC(=O)CNC(=O)C(CO)NC2=O)N1C1OC(CO)C(O)C(O)C1O (centres unmarked)
0.12

// output MIC Streptococcus pneumoniae (GC 1894); input N=C1NCC(C(O)C2NC(=O)C(CC3CCC(OC4OC(CO)C(OC5OC6COC7(OC6C(O)C5O)C5CC6CC(C5)CC7C6)C(O)C4O)CC3)NC(=O)C(CC3CCCCC3)NC(=O)CNC(=O)C(CO)NC(=O)C(C(O)C3CNC(=N)N3C3OC(CO)C(O)C(O)C3O)NC2=O)N1 (single isomer, unassigned) ; system Streptococcus sp.
32

Data origin, for the record: patent US6914045B2
